# Tested on: HCT-116 colon
# assay.procedure: NCI-60 one-dose screen, 48 h (100 = growth as untreated, 0 = no growth, -100 = all killed)
# settings: 10 µM unless noted
Compounds without any hit were thinned out: in the full panel of roughly 83,000, 20% have a hit. Activity calls are given as the source filed them. How the source made its calls: active means growth percent below 10; inactive means the rest.
measurement.name: growth

Recorded growth for CCCCNc1ccc2c3c(cccc13)C(=O)N(c1cccc(-c3nn(-c4ccccc4)cc3-c3nc4ccccc4s3)c1)C2=O , please?
98.9% (inactive)

Which measured growth value corresponds to Cc1cc(=O)oc2cc(OCC(O)CNN3C(=O)c4cccc5c(N6CCN(C)CC6)ccc(c45)C3=O)ccc12 (configuration not stated) ?
93.5% (inactive)

Please look up its growth: CC[C@@]12CC(C(=O)OC)=C3Nc4cc5c(cc4[C@@]34CCN(C[C@H]3O[C@H]31)[C@@H]24)[C@@H]1[C@H](O5)[C@@H](O)[C@@]2(CC)CC(C(=O)OC)=C3Nc4cc(O)ccc4[C@@]34CCN1[C@@H]24
-50.4% (active)

Return reported growth; argument: NC(=O)c1ccc(-c2ccc3ncnc(N4CCc5cc(F)c(Cl)cc54)c3c2)cn1
63.6% (inactive)

// growth lookup, key: Clc1ccc2c(NCCNC34CC5CC(CC(C5)C3)C4)ccnc2c1
-40.1% (active)

I have this compound here, COc1cc(C2CC(c3ccc(C(F)(F)F)cc3)=Nc3c(N)nc(N)nc3N2)ccc1Oc1nc(Nc2ccc(F)cc2)nc(N(C)C)n1 (configuration not stated) , and I need its recorded growth.
-16.4% (active)

I'd like to know its growth. The compound in question is Nc1cc(-c2c[nH]c3ccc(F)cc23)nc2cc(-c3c[nH]c4ccccc34)nn12
-41.8% (active)

Need growth of COc1cc(NC(=O)CSc2nnc(-c3ccc(-c4nc5ccc(Cl)cc5[nH]4)cc3)o2)cc(OC)c1OC , thanks.
33.2% (inactive)

Look up growth: CCOc1ccccc1[C@H]1C(C(=O)c2ccc(Cl)cc2)C2(N[C@@H]1c1ccccc1)C(=O)Nc1ccc(Cl)cc12 (some centres not stated)
11.1% (inactive)

For the compound shown here, O=C(NC(=S)N1CCN(c2ncnc3c2cnn3-c2ccccc2)CC1)c1ccc(Br)cc1 , give the reported growth.
60.3% (inactive)

Entry Cc1ccc(S(=O)(=O)Nc2ccc(-c3ccc4c(c3)NC(=O)/C4=C\c3ccc[nH]3)cc2)cc1 : reported growth = ?
60.6% (inactive)

Query (compound): COC(=O)c1cccc(Oc2ccc(NC(=O)Nc3cc(C(F)(F)F)ccc3F)cc2)c1 ; field requested: growth
60.7% (inactive)

Fill in the blank: the reported growth of CC1CCc2c(sc3nc(SCC(=O)c4cccc(Br)c4)n(-c4ccccc4)c(=O)c23)C1 (configuration not stated) is ____.
2.87% (active)

Requested read-out: growth. Entry: CCN1CCN(Cc2ccc(C(=O)Nc3cccc(Nc4ccc5c(OC)cccc5n4)c3)cc2C(F)(F)F)CC1
-56.4% (active)

Returns the measured growth for the input compound. Input: O=C(CSc1nc2sc3c(c2c(=O)n1-c1ccc(Cl)cc1)CCCC3)NNC(=O)c1ccc(F)cc1
78.3% (inactive)

Which value of growth has been reported for Nc1nn2c(-c3cc4ccccc4oc3=O)ccnc2c1N=Nc1ccccc1 in the records?
6.75% (active)

Which growth value is on record for Cc1ccccc1NC(=O)c1cccc(NC(=O)CCl)c1 ?
27.3% (inactive)

* * *

# Tested on: NCI-H322M lung
# assay.procedure: NCI-60 one-dose screen, 48 h (100 = growth as untreated, 0 = no growth, -100 = all killed)
# settings: 10 µM unless noted
This is part of a sample that, as a whole, favours compounds with a hit. Of some 83,000 tested, about 20% had one in any assay.
growth class ranges: category 1 (below 50%), category 2 (50% to below 80%), category 3 (80% or more)

Note: place this molecule into its band. Item: FC(F)(F)c1cc2c(Cl)ncnc2n1CCC1CCOCC1
category 1

Form: Item = N#C/C(=C/c1ccc(Cl)cc1)c1nnc(NC(=O)c2ccc(-n3c(=O)[nH]c4ccccc4c3=O)cc2)s1 ; Class = ?
category 2

Tag the class for CCCSc1nnc(-c2sc3nc4ccccc4n3c2C)o1
category 3

Hey, which category is Cc1nn(-c2ccccc2)c2nc(C)n(CC(=O)N/N=C/c3cccc([N+](=O)[O-])c3)c(=O)c12 in, do you know?
category 3

# bin lookup: classify CC(C)(C)C(=O)C1CC(C#N)=C2C=Cc3c(ccc4ccccc34)N21 (centres undefined) by its growth
category 3

Would you mind sorting O=c1[nH]c2ccccc2cc1CSc1ccccc1Nc1nccc(-c2ccc3c(c2)OCO3)n1 into the appropriate category?
category 3

Returns: class label. Input: CCOC(=O)c1ccc(NC(=S)NC(=O)c2ccc(NC(=O)C(C)C)cc2OC)cc1
category 2

For the record O=Cc1cncc(-c2ccc3ncnc(N4CCc5cc(F)c(Cl)cc54)c3c2)c1 , report the class its growth corresponds to.
category 1

Which bin should I file Clc1ccccc1Nc1nnc(-c2c[nH]c3ccccc23)o1 under?
category 1

Hey, which category is Clc1ccc(-c2nc3c4c(-c5ccccc5)c(-c5ccccc5)n(Cc5ccccc5)c4ncn3n2)cc1 in, do you know?
category 1

Each molecule maps to one class by growth. Which class for O=C(CSc1nc2ccccc2c(=O)[nH]1)Nc1ccccc1C(=O)O ?
category 3

Form field 'band' for Cc1cc(C2(c3cc(C)c(OCC(O)CNc4c(C)n(C)n(-c5ccccc5)c4=O)cc3C(C)C)OC(=O)c3ccccc32)c(C(C)C)cc1OCC(O)CNc1c(C)n(C)n(-c2ccccc2)c1=O (centres undefined)
category 2

Exam item: assign Fc1ccc(Nc2nnc(-c3c[nH]c4ccccc34)o2)cc1 to the correct category.
category 3

Exam item: assign Nc1cc(-c2c[nH]c3ccc(Cl)cc23)nc2cc(-c3c[nH]c4ccccc34)nn12 to the correct category.
category 1

Kindly identify the class of O=C(Nc1nc2ccc([N+](=O)[O-])cc2s1)Nc1ccccc1F .
category 1

Which class holds CS(=O)(=O)Nc1cncc(-c2ccc3ncnc(NCc4ccccc4)c3c2)c1 ?
category 1

Kindly identify the class of Cc1nn(-c2ccccc2)c2nc(C)n(CC(=O)N/N=C/c3ccccc3O)c(=O)c12 .
category 1

* * *

# Test system: IGROV1 ovarian
# assay.procedure: NCI-60 one-dose screen, 48 h
# settings: 10 µM unless noted
The panel holds about 83,000 compounds, 20% with a hit somewhere; the sample as a whole holds those more often. Active and inactive are the calls of the source. The calls were made as follows: active = growth percent below 10; inactive = the rest.
// allowed return values: YES for active, NO for inactive

Which outcome was assigned to O=C1/C(=C/C=C/c2ccco2)SC(=S)N1CC(=S)C1C=CS(=O)(=O)C1 (stereo not drawn) in this test?
NO

// param item: COc1cccc(NC(=O)c2ccc(NC(=O)CCl)s2)c1 ; yields the recorded call
YES

How was CS(=O)(=O)Nc1cncc(-c2ccc3ncnc(NCc4ccccc4)c3c2)c1 classified in this test?
YES

Outcome? Cc1ccccc1Nc1nnc(-c2c[nH]c3ccccc23)o1
NO

Assay result, entry CC(C)(C)c1cc(-c2cc(-c3ccccc3)[nH]c(=O)c2C#N)cc(C(C)(C)C)c1 — outcome?
NO

Query: recorded result category for Cc1cc(Cl)ccc1NC(=O)Nc1ccc(-c2ccc3c(c2)NC(=O)/C3=C\c2ccc[nH]2)cc1 in this test
NO

Field: outcome | Entry: COC(=O)c1c(C(=O)OC)c2c3ccccc3c3ccccc3n2c1C(=O)C(C)(C)C
NO

# lookup: test call for CN1CCN(CCS(=O)(=O)Nc2cc(-c3ccc4ncnc(Nc5ccc(F)c(Cl)c5)c4c3)cnc2Cl)CC1
YES

So what was the verdict on CC[C@]12C=CCN3CC[C@@]4(c5ccc(OC)cc5N(C)[C@H]4[C@@](O)(C(=O)OC)[C@@H]1OC(=O)CCC[P+](c1ccc(OC)cc1)(c1ccc(OC)cc1)c1ccc(OC)cc1)[C@@H]32 in this test?
YES

Outcome logged for COc1cccc(/C=C/c2nc3ccccc3c(=O)n2CC(=O)Nc2ccccc2)c1 in this assay:
NO

Call for entry O=c1c(-c2nc(-c3ccccc3)c(-c3ccccc3)[nH]2)coc2ccc(F)cc12 :
NO

Could you kindly confirm the outcome this assay logged for Cn1cc(-c2cc3nc(-c4cn(C)c5ncc(Br)cc45)cc(N)n3n2)c2cc(F)ccc21 ?
NO

Could you check what this test reported for COc1ccc2[nH]cc(-c3cc4nc(-c5cn(C)c6ncc(Br)cc56)cc(N)n4n3)c2c1 ?
YES

Per the assay record, what outcome was assigned to Nc1cc(-c2c[nH]c3ccc(Br)cc23)nc2cc(-c3c[nH]c4ccccc34)nn12 ?
YES

// return assay outcome for c1ccc(CSc2nnc(-c3ccc4nc(-c5ccccc5)[nH]c4c3)o2)cc1
NO

Give the logged outcome of this assay for the following compound: COC(=O)c1c(C(=O)OC)c2c3ccccc3c3ccccc3n2c1C(=O)C(F)(F)F
NO

For this compound, state the assay outcome: CC[C@]12C=CCN3CC[C@@]4(c5ccc(OC)cc5N(C)[C@H]4[C@@](O)(C(=O)OC)[C@@H]1OC(=O)CCCC[P+](c1ccc(F)cc1)(c1ccc(F)cc1)c1ccc(F)cc1)[C@@H]32
YES

What classification did CC1CCc2c(sc3nc(SCC(=O)c4cccc(Br)c4)n(-c4ccccc4)c(=O)c23)C1 (stereo not drawn) end up with in this test?
NO
